# Test system: UO-31 renal
# measurementNotes: NCI-60 one-dose screen, 48 h (100 = growth as untreated, 0 = no growth, -100 = all killed)
# conditionDescription: 10 µM unless noted
About 83,000 compounds went through this panel and 20% of them were active in at least one assay; those are over-represented in the sample as a whole.
Recorded growth by entry
// return numeric value only (unit: %, not printed)

Measured growth, CC[C@H](C)[C@H](NC(=O)[C@H]1CCCCN1C)C(=O)N(C)[C@H](C[C@@H](O)c1nc(C(=O)N[C@@H](Cc2ccccc2)C[C@H](C)C(=O)O)cs1)C(C)C : 84.1

Measured growth, CC(=O)O[C@H](C[C@H](C(C)C)N(C)C(=O)[C@@H](NC(=O)[C@H]1CCCCN1C)C(C)C)c1nc(C(=O)N[C@@H](Cc2ccccc2)C[C@H](C)C(=O)O)c(CCOCc2ccccc2)s1 : 31.8

Measured growth, CCOC(=S)S[C@H]1C[C@@H]2[C@H](CC[C@]3(C)C(=O)CC[C@@H]23)[C@@]2(C)CCC(=O)C=C12 : 97.3

Measured growth, Cc1ccc(N2COOC3(OOC2)C2CC4CC(C2)CC3C4)cc1 : 20.7

Measured growth, CC(=O)O[C@H]1CC[C@H]2[C@@H]3CC=C4c5nc(-c6ccccc6)sc5CC[C@]4(C)[C@H]3CC[C@]12C : 78.2

Measured growth, CN(C)CCCOc1ccc2c(c1)c(C(=O)C(=O)NCCO)cn2Cc1ccccc1 : 84

Measured growth, O=P1(NCCCl)OCCCN1CCCl (centres undefined) : 87.5

Measured growth, COc1cccc(/C=C/[N+](=O)[O-])c1 : 45.8

Measured growth, O=[N+]([O-])c1c(Br)sc(Br)c1[N+](=O)[O-] : -65.7

Measured growth, C[C@]12CC[C@@H]3c4ccc(Oc5nc(N6CC6)nc(N6CC6)n5)cc4CC[C@H]3[C@@H]1CCC2=O : 28.6

Measured growth, CCn1nccc1NC(=O)C(=O)c1cn(Cc2ccc(F)cc2)c2cccc(OC)c12 : 47.5

Measured growth, COc1ccc(N(CC(=O)NCCC[Te]c2ccccc2)C(=O)CCSC2=C(C)C(=O)c3ccccc3C2=O)cc1 : -29.3

Measured growth, CC(=O)OC[C@]1(C)C=C2C(=O)[C@](C)(O)C3(CC3)C(C)=C2[C@H]1OC(=O)N(C)CCN(C)C(=O)OC(C)(C)C : -48.5

Measured growth, CN1CCC(O)(c2ccc(F)cc2)C(C(=O)c2ccc(F)cc2)C1 (centres undefined) : 84.7

Measured growth, COc1ccc(NC([Se])=NC23CC4CC(CC(C4)C2)C3)cc1 : -27.3

Measured growth, C=CC12CCN(CC1)C(C(O)c1ccnc3ccc(OC)cc13)C2 (centres undefined) : 48.3

Measured growth, O=[As](O)(O)c1ccccc1[As](=O)(O)O : 78.8

Measured growth, O=C1NC(=O)C(=Cc2ccc(OCCCCC3CCCCC3)c(Cl)c2)C(=O)N1 : 81.2

Measured growth, C[CH2][Sn]([Cl])([Cl])[CH2]C.Oc1ccccc1C=NCCN=Cc1ccccc1O : 72.8

---

# Tested on: EKVX NSCLC
# measurementNotes: NCI-60 one-dose screen, 48 h
# conditionDescription: 10 µM unless noted
The panel holds about 83,000 compounds, 20% with a hit somewhere; the sample as a whole holds those more often. Active and inactive are the calls of the source. Rule for the calls: active = growth percent below 10; inactive = the rest.
A correct response names exactly one class from y (active), n (inactive)

Some solved entries appear below for comparison.
> print(dat)
                                   molecule  answerlabel
1  [Au+].[N-]=C=O.c1ccc(CN2[CH-]N(Cc3ccccc3)C(c3ccccc3)=C2c2ccccc2)cc1            n
2                         OCc1ccc2c(c1)OCO2            n
3  CC(C)(NC(=O)O[C@@H]1CN2CCC1CC2)c1csc(-c2ccc(F)cc2)n1            n
4  CCCCN1CCCC[C@@H]1C(=O)N[C@H](C(=O)N(C)[C@H](CCc1nc(C(=O)N[C@@H](Cc2ccccc2)C[C@H](C)C(=O)OC)cs1)C(C)C)[C@@H](C)CC            n
5  C[CH2][Sn]([Cl])([Cl])[CH2]C.Oc1ccccc1C=NCCN=Cc1ccccc1O            n
6         O=[N+]([O-])/C=C\c1ccc(Cl)c(Cl)c1            n
7  CN1CCC(O)(c2ccc(F)cc2)C(C(=O)c2ccc(F)cc2)C1 (stereo not given)            n
8   O=C(Nc1ccc([N+](=O)[O-])cc1)C(Cl)(Cl)Cl            n
9  CCCCCCCCCCCCNC(c1ccccc1)C(O)c1ccccc1 (stereo not given)            n

Now for another entry.
Dear colleague, could you share the recorded outcome for CC12CCC=CC1CCC1C2CCC2(C)C(c3ccc(=O)oc3)CCC12O (stereo not given) when you have a moment?
y

Just for reference, PubChem BioAssay (NCI) is where these values come from.
